Attribution: patent US20120077731A1

Target: T1, Human plasma sIL-6R (human, UniProt P08887 20-355, limits assumed)
T1 construct: also called plasma-derived human IL-6R
T1 sequence (looked up): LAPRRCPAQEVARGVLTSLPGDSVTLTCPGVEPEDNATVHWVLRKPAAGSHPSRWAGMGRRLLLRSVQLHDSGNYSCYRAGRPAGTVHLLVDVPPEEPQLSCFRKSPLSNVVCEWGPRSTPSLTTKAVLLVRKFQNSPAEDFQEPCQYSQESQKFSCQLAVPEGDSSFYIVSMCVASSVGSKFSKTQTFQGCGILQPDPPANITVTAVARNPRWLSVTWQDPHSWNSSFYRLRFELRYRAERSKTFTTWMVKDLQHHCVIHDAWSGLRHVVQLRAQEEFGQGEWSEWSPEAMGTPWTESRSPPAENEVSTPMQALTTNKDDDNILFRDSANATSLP
Measurement Notes: plasma potency ELISA, human plasma + human IL-6 50 ng/mL; sIL-6R captured on BN-12, bound IL-6 detected; blocked ligand IL-6
Endpoint Label: IC50 (read off the curve)

>>> reported_measurement("IL6R65 (VHH, also called ILR65; parent Nanobody) VHH: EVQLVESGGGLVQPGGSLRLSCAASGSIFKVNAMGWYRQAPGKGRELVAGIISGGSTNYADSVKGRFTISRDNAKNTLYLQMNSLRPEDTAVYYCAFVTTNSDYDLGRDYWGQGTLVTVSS")
"~0.7 nM"
>>> reported_measurement("Reference IgG (antibody, V domains shown, Full-length human IgG1 produced in CHO cells) VH: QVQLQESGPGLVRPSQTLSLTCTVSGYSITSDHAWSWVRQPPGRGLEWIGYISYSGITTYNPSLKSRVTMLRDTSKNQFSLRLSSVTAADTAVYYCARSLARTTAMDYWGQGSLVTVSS VL: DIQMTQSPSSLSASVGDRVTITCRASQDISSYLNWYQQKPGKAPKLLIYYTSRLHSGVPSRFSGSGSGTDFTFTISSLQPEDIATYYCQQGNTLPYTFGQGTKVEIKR")
"~0.04 nM"
>>> reported_measurement("Reference Fab (Fab, V domains shown, Built from RVLa and RVHf of EP 0628639; expressed in E. coli periplasm) VH: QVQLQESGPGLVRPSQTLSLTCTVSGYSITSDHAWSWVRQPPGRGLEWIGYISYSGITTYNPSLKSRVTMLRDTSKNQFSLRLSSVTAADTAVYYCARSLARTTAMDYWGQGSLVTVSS VL: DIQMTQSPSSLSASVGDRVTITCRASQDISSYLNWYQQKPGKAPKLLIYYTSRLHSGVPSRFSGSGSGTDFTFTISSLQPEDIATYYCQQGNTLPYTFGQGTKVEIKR")
"~0.3 nM"

// below: IC50 (read off the curve) requested for another binder
Prompt: Look up and state reported IC50 (read off the curve) for IL6R201 (VHH, also called tagless version of IL6R75; 16R201/75) VHH: EVQLVESGGGLVQPGGSLRLSCAASGFTFSDYDIGWFRQAPGKGREGVSGISSSDGNTYYADSVKGRFTISRDNAKNTLYLQMNSLRPEDTAVYYCAAEPPDSSWYLDGSPEFFKYWGQGTLVTVSS
Response: ~0.04 nM
